B1: tRNA (parent)
chain: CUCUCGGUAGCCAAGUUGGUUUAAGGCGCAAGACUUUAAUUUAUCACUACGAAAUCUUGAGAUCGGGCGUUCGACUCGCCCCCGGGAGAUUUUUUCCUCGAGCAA

Variants of: B1
assayProtocol: nonsense suppression (GFP-seq) (ratio to wild type); higher = more function; SUP4oc tRNA, yeast GFP reporter sort-seq
Variants at the floor of the assay were thinned out.
Listed here: items and their measured nonsense suppression.
quantityName: nonsense suppression

1. U16G C83U : 0.223
2. A54U G61U : 1.16
3. U22G G78A : 0.173
4. A9U A31G : 0.193
5. G7U C82A : 1.02
6. C3U G61C : 0.164
7. U22A G78A : 0.283
8. U20A G85U : 0.0676
9. A14G A31G : 0.0611
10. A13G : 0.191
11. U2A U4A : 0.0323
12. G61A A87G : 0.197
